The compounds listed here are annotated with their Ki.
target: Mu-type opioid receptor (Rattus norvegicus, UniProt P33535)
Sequence (P33535 whole entry): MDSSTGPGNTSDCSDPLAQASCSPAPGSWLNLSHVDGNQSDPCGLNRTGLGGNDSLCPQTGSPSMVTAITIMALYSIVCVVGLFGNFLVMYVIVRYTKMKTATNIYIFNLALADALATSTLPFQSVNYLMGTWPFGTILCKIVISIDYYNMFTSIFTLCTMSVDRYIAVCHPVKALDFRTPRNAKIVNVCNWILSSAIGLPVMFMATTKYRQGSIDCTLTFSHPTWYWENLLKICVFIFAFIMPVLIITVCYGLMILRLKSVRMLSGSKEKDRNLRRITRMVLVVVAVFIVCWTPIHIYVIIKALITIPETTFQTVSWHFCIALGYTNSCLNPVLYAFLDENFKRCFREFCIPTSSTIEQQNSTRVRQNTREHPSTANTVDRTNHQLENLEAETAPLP
Form entry: value (nM) — number only.

CN(CCOC/C=C/c1ccccc1)CCc1ccccc1    1680
CCCCN(CCCC)CCOCCCc1ccccc1    2490
CN(CCOCCCc1ccccc1)Cc1ccccc1    2760

Now examine the next entry.
For record `CN(CCOC/C=C/c1ccccc1)Cc1ccccc1` the listed Ki is 3040

----------
molecular target: Delta-type opioid receptor (Rattus norvegicus); test: Displacement of [3H]DPDPE from delta opioid receptor in rat brain homogenate after 1 hr by liquid scintillation counting; format: tissue-based
Sequence (P33533 whole entry): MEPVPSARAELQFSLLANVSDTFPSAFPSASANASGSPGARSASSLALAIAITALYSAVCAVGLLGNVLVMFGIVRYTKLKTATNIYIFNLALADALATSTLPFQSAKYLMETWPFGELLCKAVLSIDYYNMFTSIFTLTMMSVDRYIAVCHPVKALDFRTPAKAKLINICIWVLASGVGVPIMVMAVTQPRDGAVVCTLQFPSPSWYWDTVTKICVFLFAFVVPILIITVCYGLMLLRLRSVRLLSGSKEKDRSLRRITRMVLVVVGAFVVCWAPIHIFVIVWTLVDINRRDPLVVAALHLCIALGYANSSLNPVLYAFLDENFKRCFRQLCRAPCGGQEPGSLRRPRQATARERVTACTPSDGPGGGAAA
MEASUREMENT_TYPE: Ki

Item `CN(CCOC/C=C/c1ccccc1)CCc1ccccc1` ; assay system Delta-type opioid receptor (Rattus norvegicus); Ki reported as 6.85 µM

Known value: Delta-type opioid receptor (Rattus norvegicus) Ki of the molecule `CN(CCCc1ccccc1)CCOCCCc1ccccc1` equals 6.65 µM

Ki for Delta-type opioid receptor (Rattus norvegicus) with input `CCCCN(CCCC)CCOCCCc1ccccc1` equals > 10 µM

So the reported Ki for `CN(CCCc1ccccc1)CCOC/C=C/c1ccccc1` , on Delta-type opioid receptor (Rattus norvegicus), turned out to be > 10 µM

Kindly note: Delta-type opioid receptor (Rattus norvegicus), `CN(CCOC/C=C/c1ccccc1)Cc1ccccc1` , Ki value reported: > 10 µM

Tested on Delta-type opioid receptor (Rattus norvegicus), the item `CCCCN(CCCC)CCOC/C=C/c1ccccc1` showed Ki equal to > 10 µM

Record for `CN(CCOCCCc1ccccc1)Cc1ccccc1` under target or system Delta-type opioid receptor (Rattus norvegicus): Ki reported as > 10 µM

----------
molecular target: Mu-type opioid receptor (Rattus norvegicus)
MEASUREMENT_TYPE: pKi
Reminder that pKi means the negative base-10 logarithm of the concentration expressed in mol/L.

Lab note: measured pKi of `CCCCN(CCCC)CCOC/C=C/c1ccccc1` was 5.60

Record summary for `CN(CCCc1ccccc1)CCOCCCc1ccccc1` : reported pKi = 5.82

# pKi of `CN(CCOCCCc1ccccc1)CCc1ccccc1` = 5.64
